B1: ZNF263 (parent)
chain: HLTRHQRTHTGEKPYKCTLCGENF

- Variants of: B1
- experiment-notes: protein stability index of a GFP-peptide fusion (GPS, HEK-293T) (PSI 1-6); higher = more stable;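 also: lentivirally expressed fusions sorted by FACS into six bins by GFP to DsRed ratio, PSI derived from sequencing read proportions per bin multiplied by bin number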
- test-context: c terminus: a fixed tail appended
measured-quantity: protein stability index
Write no unit; give the number alone.

Please review the entries below; each comes with its answer.
INSERT INTO results (sequence_entry, measured_quantity, test_value) VALUES
  ('HLTRHQRTHTGEKPYKCTHCGENF [L19H]', 'protein stability index', 2.94),
  ('HLTRHQRTHTGEKPYKCTLWGENF [C20W]', 'protein stability index', 2.56),
  ('HLTRHQRTHTEEKPYKCTLCGENF [G11E]', 'protein stability index', 3.92),
  ('HLTRHQHTHTGEKPYKCTLCGENF [R7H]', 'protein stability index', 4.64),
  ('HLTRHARTHTGEKPYKCTLCGENF [Q6A]', 'protein stability index', 2.93),
  ('HLTRHQRTHTGEKPYKKTLCGENF [C17K]', 'protein stability index', 3.71);

QUERY: # query: protein stability index of entry HLTLHQRTHTGEKPYKCTLCGENF [R4L]
RESULT: 3.22

QUERY: What value of protein stability index has been reported for the following variant? HLTRHQRTHDGEKPYKCTLCGENF [T10D]
RESULT: 2.78

QUERY: Field request: protein stability index | item: HLTRHQRTHTGEKPYKCTMCGENF [L19M]
RESULT: 2.83

QUERY: Give its protein stability index value. Item: HLTRHQRTHTGEKDYKCTLCGENF [P14D]
RESULT: 3.65

QUERY: So what's the measured protein stability index for this one? HLTRHQRTHTGEKPYKCTLCGEDF [N23D]
RESULT: 3.33

QUERY: Please look up its protein stability index: HLTRHQRTHTGEKPYKCTLCGENC [F24C]
RESULT: 4.06

QUERY: Name the reported protein stability index value associated with the variant HLTRHQRTHTGEKPPKCTLCGENF [Y15P]
RESULT: 3.1

QUERY: I would be grateful if you could share the reported protein stability index for HLTRHQRPHTGEKPYKCTLCGENF [T8P] .
RESULT: 2.54

QUERY: Look up protein stability index for this variant: HLIRHQRTHTGEKPYKCTLCGENF [T3I]
RESULT: 2.33

QUERY: What does the data say about its protein stability index? Entry: HLTRHQRTHTGEWPYKCTLCGENF [K13W]
RESULT: 2.5

QUERY: Suppose we examine the variant HLTRHQRTHTGEKPTKCTLCGENF [Y15T] ; what protein stability index value has been reported?
RESULT: 3

QUERY: For the variant shown here, HLTRHQRTHTGVKPYKCTLCGENF [E12V] , give the reported protein stability index.
RESULT: 3.08

QUERY: Form field: reported protein stability index of HLTRHQRTHTGEKPYKCTLCGEEF [N23E]
RESULT: 2.75

QUERY: So what does the record say about protein stability index for HLTRHQRTHTGEKPYKCTFCGENF [L19F] ?
RESULT: 2.62

QUERY: Returns the measured protein stability index for the input variant. Input: HLTRHQRTHTGEKPYKCKLCGENF [T18K]
RESULT: 2.98

QUERY: Please look up its protein stability index: HLTRHQRTHTLEKPYKCTLCGENF [G11L]
RESULT: 2.99

QUERY: Recorded protein stability index of HLTRHQRTHTGEIPYKCTLCGENF [K13I] , please.
RESULT: 2.13

QUERY: Can you look up the measured protein stability index of HLTRHQRTHTGEKPYICTLCGENF [K16I] for me?
RESULT: 2.97

QUERY: Looking for the measured protein stability index of HLTRHQLTHTGEKPYKCTLCGENF [R7L] , can you help?
RESULT: 2.97
